Assay: chemical genetic growth profiling, strain panel (AID 1159580);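 also: tested at 20 µM; growth read once vehicle control cultures reached saturation at 30 °C; 1 = growth at the plate median or of vehicle wells; lower values mean less growth of the strain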
Conditions: S. cerevisiae deletion strains, growth OD, locus YJL092W, strain hpr5, stronger effect = lower value
Out of some 5,500 compounds screened, about 2,000 (36%) were called active. About 18% were inconclusive and are not listed. This is one part of the list.
measurement type: normalized growth

[[record]]
molecule = "CC12CCC(CC1)C(C)(C)O2"
val = 0.954

[[record]]
molecule = "CCN(CC)CCOC(=O)C(Cc1cccc2ccccc12)CC1CCCO1 (stereo not drawn)"
val = 1.01

[[record]]
molecule = "O=C(O)CNCP(=O)(O)O"
val = 1.02


----------
Assay: chemical genetic growth profiling, strain panel (AID 1159580);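 also: tested at 20 µM; growth read once vehicle control cultures reached saturation at 30 °C; 1 = growth at the plate median or of vehicle wells; lower values mean less growth of the strain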
Conditions: S. cerevisiae deletion strains, growth OD, locus YDR297W, strain sur2
Out of some 5,500 compounds screened, about 2,000 (36%) were called active. Not shown: some 18% with an inconclusive outcome. Rule as the data show it: active = normalized growth mostly below about 0.91 (no sharp cut-off); inconclusive = no clear call, values can overlap the other calls; inactive = mostly above about 0.92. The list shows a part of the results.
Outcome codes: 1 = active, -1 = inactive

[[record]]
compound = "CC1=C(/C=C/C(C)=C/C=C/C(C)=C/CO)C(C)(C)CCC1"
label_class = -1

[[record]]
compound = "Cc1cccc(CN2CCN(C(c3ccccc3)c3ccc(Cl)cc3)CC2)c1 (stereo not given)"
label_class = 1

[[record]]
compound = "O=C(O)c1cc(=O)c(O)c2c(O)c(O)c(O)cc2c1"
label_class = 1

[[record]]
compound = "COc1ccc(CN(CCN(C)C)c2ncccn2)cc1"
label_class = -1

[[record]]
compound = "COc1ccc(/C=C/c2cc(O)cc(O)c2)cc1"
label_class = -1

[[record]]
compound = "CC[C@@H](C(=O)[C@@H](C)[C@@H](O)[C@H](C)[C@@H]1O[C@@H]([C@@H](CC)C(=O)O)CC[C@@H]1C)[C@H]1OC2(C=C[C@@H](O)[C@]3(CC[C@@](C)([C@H]4CC[C@](O)(CC)[C@H](C)O4)O3)O2)[C@H](C)C[C@@H]1C (stereo not given in full)"
label_class = 1

[[record]]
compound = "CCOC(=O)c1ccc(N)cc1"
label_class = -1

[[record]]
compound = "CC[C@@]1(C2O[C@@H](C3O[C@@](O)(CC)[C@H](C)C[C@@H]3C)C[C@@H]2C)CC[C@H]([C@]2(C)CCC3(C[C@H](O)[C@@H](C)[C@@H]([C@H](C)[C@@H](OC)[C@H](C)C(=O)O)O3)O2)O1 (stereo not given in full)"
label_class = -1

[[record]]
compound = "CC1=C(/C=C/C(C)=C/C=C/C(C)=C\\C(=O)O)C(C)(C)CCC1"
label_class = -1

[[record]]
compound = "Nc1ccc(S(=O)(=O)Nc2nccs2)cc1"
label_class = -1

[[record]]
compound = "CCN(CC)CCOC(=O)C(Cc1cccc2ccccc12)CC1CCCO1 (stereo not given)"
label_class = -1

[[record]]
compound = "c1ccc2[nH]c(-c3cscn3)nc2c1"
label_class = -1

[[record]]
compound = "O=C(O)c1cc(O)c(O)c(O)c1"
label_class = -1

[[record]]
compound = "O=C(O)c1cc(=O)c(O)c2c(O)c(O)ccc2c1"
label_class = -1

[[record]]
compound = "O=C(NC(Cc1cc(=O)[nH]c2ccccc12)C(=O)O)c1ccc(Cl)cc1 (stereo not given)"
label_class = -1


Entry source: PubChem BioAssay AID1159580
